- Test system: OVCAR-3 ovarian
- assay_name: NCI-60 one-dose screen, 48 h
- test_context: 10 µM unless noted
About 83,000 compounds went through this panel and 20% of them were active in at least one assay; those are over-represented in the sample as a whole. Activity calls are given as the source filed them. How the source made its calls: active means growth percent below 10; inactive means the rest.
Outcomes: Yes = active, No = inactive

>>> label_value("CN1CCN(c2nc(C3=C(c4c[nH]c5ccccc45)C(=O)NC3=O)c3ccccc3n2)CC1")
"No"
>>> label_value("O=C(Nc1cccc(Cl)c1)Nc1ncc(CCNc2ncnc3ccsc23)s1")
"No"
>>> label_value("CN1CCN(CCCOc2cccc3nc(Nc4ccc(Cl)c(C(F)(F)F)c4)ccc23)CC1")
"Yes"
>>> label_value("Cn1ccnc1C(=O)/C=C/c1ccc(CC(=O)Nc2ccc(Br)cc2)cc1")
"No"
>>> label_value("O=c1sn(-c2cccc3ccccc23)c(=O)n1Cc1ccccc1")
"No"
